target: RSV fusion glycoprotein (RSV F) on RSV-A2 virus (respiratory syncytial virus, UniProt P03420 26-574); assay: cell-based or functional assay
parameterMeasured: Neutralization IC50 (RSV subtype A)

binder	recordedResult
ADI-41393 (antibody, V domains shown, IgG1; also called Ab 687) VH: QVQLVQSGAEVKKPGESLKISCKGSGYSFTSYWIGWVRQMPGKGLEWMGIIYPGDSDTRYSPSFQGQVTISADKSTSTAYLQWSSLKASDSAMYYCARSEFSSSFDFWGQGTLVTVSS VL: NFMLTQPHSVSESPGKTVTISCTGSSGSIASYYVQWYQLRPGSAPTTVIYEDNQRLSGVPDRFSGSIDSSSNSASLTISGLKTEDEADYYCQSYRSGIPWVFGGGTKLTVL	> 25 µg/mL
ADI-41381 (antibody, V domains shown, IgG1; also called Ab 678) VH: QVQLQESGPGLVKPSQTLSLTCTVSGDSISGGEHYWSWIRQPPGKGLEWIGSIYYSGTTYYNPSLKSRLTVSVDTFKNQFSLMLSYVTAADTAVYYCARDASPAYHDYIWGSCRYFDKWGQGTLVTVSS VL: EIVLTQSPGTLSLSPGERATLSCRASQSVSSNYLAWYQQKPGQAPRILIHGASSRATGIPDRFSGSGSGTDFTLTVSRLEPEDFAVYYCQQYGSTPYTFGQGTKVEIK	> 25 µg/mL

Query: Supply measured Neutralization IC50 (RSV subtype A) of ADI-41379 (antibody, V domains shown, IgG1) VH: QVQLVQSGAEVKKPGESLKISCKGSGYSFSSFWIGWVRQMPGKGLEWMGIIYPGDSDTRYSPSFKGQVTISADTSISTAYLQWSSLKASDTAMYYCAKSIVGSTGSFDPWGQGTLVTVSS VL: DIQMTQSPSSLSASVGDRVTITCQASQDISNFLNWYQQKPGKAPKLLIYDASNLRTGVPSRFSGSGSGTEFTFTISSLQPEDIATYYCQQYHDLPPLTFGGGTKVDIK in your reply.
Response: > 25 µg/mL
